- study system: E. coli RNase P holoenzyme (M1 P RNA + rnpA protein)
- Sequence: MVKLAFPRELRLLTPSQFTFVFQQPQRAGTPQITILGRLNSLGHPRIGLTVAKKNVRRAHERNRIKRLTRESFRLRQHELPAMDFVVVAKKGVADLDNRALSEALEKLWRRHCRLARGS
- procedure details: relative kcat/Km (krel) vs genomic leader AAAGAU (relative (reference leader = 1)); higher = faster RNase P cleavage
- experimental context: fraction of substrate reacted: ~26-29% (28.66% repeat 1, 26.4% repeat 2)
The full ranking holds about 4,100 sequences; the median of “relative kcat/Km (krel) vs genomic leader AAAGAU” is about 1.7, and the highest 2% start at about 6.5. Many of the other results were omitted from the sample, so the highest values are more common in it than they were.
In this section we review reported relative kcat/Km values for a set of sequences.
Answer with a bare number; do not write a unit.

Consider the worked cases shown below.
residue codes | study system | relative kcat/Km
GACTAG | E. coli RNase P holoenzyme (M1 P RNA + rnpA protein) | 4.67
CCCTTT | E. coli RNase P holoenzyme (M1 P RNA + rnpA protein) | 5.02
AGTGAA | E. coli RNase P holoenzyme (M1 P RNA + rnpA protein) | 3.35
GCGAAA | E. coli RNase P holoenzyme (M1 P RNA + rnpA protein) | 2.16
GGACAA | E. coli RNase P holoenzyme (M1 P RNA + rnpA protein) | 2.59

Asked: If you can, please state the reported relative kcat/Km value of TCCTTC .
Given back: 6.44

Asked: One more sequence: CATTCA
Given back: 2.76

Asked: One more sequence: AAGGGA
Given back: 1.11

Asked: One more sequence: TCCTTA
Given back: 6.32

Asked: One more sequence: ACTTTG
Given back: 1.31

Asked: One more sequence: ATCTGG
Given back: 1.46

Asked: One more sequence: AGCACC
Given back: 3.05

Asked: One more sequence: GAAGGT
Given back: 1.31
